viscosity: recorded values
- ASSAY_NAME: xn = mol fraction of the nth substance listed
- CONDITIONS_USED: 313.15 K; 101.33 kPa; x2 = 0.7
READOUT_TYPE: viscosity (mPa·s)

compound="CC[N+](=O)[O-] + CC(C)O" readout_type=viscosity unit_name=mPa·s val=0.725
compound="CC[N+](=O)[O-] + CCC(C)O" readout_type=viscosity unit_name=mPa·s val=0.862
compound="CC[N+](=O)[O-] + CCCO" readout_type=viscosity unit_name=mPa·s val=0.808
compound="CC[N+](=O)[O-] + CCO" readout_type=viscosity unit_name=mPa·s val=0.586

====

- ASSAY_NAME: xn = mol fraction of the nth substance listed
- CONDITIONS_USED: 313.15 K; 101.33 kPa; x2 = 0.55
READOUT_TYPE: viscosity (mPa·s)

compound="CC[N+](=O)[O-] + CC(C)(C)O" unit_name=mPa·s val=0.728
compound="CC[N+](=O)[O-] + CCC(C)O" unit_name=mPa·s val=0.707
compound="CC[N+](=O)[O-] + CCCO" unit_name=mPa·s val=0.681
compound="CC[N+](=O)[O-] + CCO" unit_name=mPa·s val=0.538
compound="CC[N+](=O)[O-] + CO" unit_name=mPa·s val=0.433

====

- ASSAY_NAME: xn = mol fraction of the nth substance listed
- CONDITIONS_USED: 313.15 K; 101.33 kPa; x2 = 0.8
Parameter: viscosity. Scope: all listed entries.
READOUT_TYPE: viscosity (mPa·s)

molecule="CC[N+](=O)[O-] + CC(C)O" readout_type=viscosity unit_name=mPa·s val=0.849
molecule="CC[N+](=O)[O-] + CCCO" readout_type=viscosity unit_name=mPa·s val=0.947
molecule="CC[N+](=O)[O-] + CCO" readout_type=viscosity unit_name=mPa·s val=0.637
molecule="CC[N+](=O)[O-] + CO" readout_type=viscosity unit_name=mPa·s val=0.428
molecule="CC[N+](=O)[O-] + CCC(C)O" readout_type=viscosity unit_name=mPa·s val=1.026

====

Measured viscosity accompanies every entry in the list below.
- ASSAY_NAME: xn = mol fraction of the nth substance listed
- CONDITIONS_USED: 298 K; 101.33 kPa; x1 = 0.7
READOUT_TYPE: viscosity (mPa·s)

compound="CCCC(=O)OCC(COC(=O)CCC)OC(=O)CCC + CCCCCCO" val=6.15
compound="CCCC(=O)OCC(COC(=O)CCC)OC(=O)CCC + CCCCO" val=5.96
compound="CCC(C)(C)C + CCCCCCCCCCCC" val=0.6152
compound="CCCC(=O)OCC(COC(=O)CCC)OC(=O)CCC + CCO" val=5.97

====

- ASSAY_NAME: xn = mol fraction of the nth substance listed
- CONDITIONS_USED: 313.15 K; 101.33 kPa; x2 = 0.6
± gives the uncertainty stated by the source.
READOUT_TYPE: viscosity

molecule="CC[N+](=O)[O-] + CO" readout_type=viscosity val="0.43 ± 0.004 mPa·s"
molecule="CC[N+](=O)[O-] + CCO" readout_type=viscosity val="0.55 ± 0.005 mPa·s"
molecule="CC[N+](=O)[O-] + CC(C)(C)O" readout_type=viscosity val="0.777 ± 0.007 mPa·s"
molecule="CC[N+](=O)[O-] + CCCO" readout_type=viscosity val="0.718 ± 0.006 mPa·s"

====

- ASSAY_NAME: xn = mol fraction of the nth substance listed
- CONDITIONS_USED: 303.15 K; 101.33 kPa; x2 = 0.35
Overview of reported viscosity across a group of compounds:
READOUT_TYPE: viscosity (mPa·s)

compound="CC[N+](=O)[O-] + CCO" readout_type=viscosity val=0.575
compound="CC[N+](=O)[O-] + CCCO" readout_type=viscosity val=0.667
compound="CC[N+](=O)[O-] + CC(C)(C)O" readout_type=viscosity val=0.694
compound="CC[N+](=O)[O-] + CCC(C)O" readout_type=viscosity val=0.676
compound="CC[N+](=O)[O-] + CC(C)O" readout_type=viscosity val=0.628

====

- ASSAY_NAME: xn = mol fraction of the nth substance listed
- CONDITIONS_USED: 303.15 K; 101.33 kPa; x2 = 0.25
Quick rule for you: viscosity at 0.6 mPa·s or higher means T, lower means F.

compound="CC[N+](=O)[O-] + CCCO" label_value=T
compound="CC[N+](=O)[O-] + CCO" label_value=F
compound="CC[N+](=O)[O-] + CO" label_value=F
compound="CC[N+](=O)[O-] + CCC(C)O" label_value=T

====

- ASSAY_NAME: xn = mol fraction of the nth substance listed
- CONDITIONS_USED: 303.15 K; 101.33 kPa; x2 = 0.8
Reported viscosity values are given for each entry in this list.
READOUT_TYPE: viscosity (mPa·s)

compound="CC[N+](=O)[O-] + CCC(C)O" readout_type=viscosity unit_name=mPa·s val=1.319
compound="CC[N+](=O)[O-] + CCO" readout_type=viscosity unit_name=mPa·s val=0.748
compound="CC[N+](=O)[O-] + CC(C)O" readout_type=viscosity unit_name=mPa·s val=1.052
compound="CC[N+](=O)[O-] + CCCO" readout_type=viscosity unit_name=mPa·s val=1.133
compound="CC[N+](=O)[O-] + CO" readout_type=viscosity unit_name=mPa·s val=0.487
